Target: Xaa-Pro dipeptidase (Alteromonas sp.) (UniProt Q44238)
Sequence (Q44238 whole entry, looked up): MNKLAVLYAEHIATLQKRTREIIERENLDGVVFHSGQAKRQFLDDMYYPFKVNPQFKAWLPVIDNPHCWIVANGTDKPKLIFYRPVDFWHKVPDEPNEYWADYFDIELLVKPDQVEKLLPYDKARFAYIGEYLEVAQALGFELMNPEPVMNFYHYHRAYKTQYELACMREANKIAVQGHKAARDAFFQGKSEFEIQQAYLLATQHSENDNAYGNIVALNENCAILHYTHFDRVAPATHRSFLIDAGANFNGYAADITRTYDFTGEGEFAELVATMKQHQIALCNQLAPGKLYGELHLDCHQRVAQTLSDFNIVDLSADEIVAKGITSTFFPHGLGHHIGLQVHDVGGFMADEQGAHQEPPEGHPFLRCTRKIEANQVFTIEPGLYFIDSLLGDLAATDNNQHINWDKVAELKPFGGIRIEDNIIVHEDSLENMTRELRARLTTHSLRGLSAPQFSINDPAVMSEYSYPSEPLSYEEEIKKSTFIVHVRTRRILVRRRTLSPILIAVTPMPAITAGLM
Assay: Kinetic constant Kcat from initial velocity assay against Organophosphorus acid anhydrolase from Alteromonas sp. JD6.5
k cat strictly under 1 s⁻¹ means Condition met; at 1 s⁻¹ or over means Condition not met.

record smiles: CCO[P@@](=O)(OC)Oc1ccc([N+](=O)[O-])cc1
classification: Condition met

record smiles: O=[N+]([O-])c1ccc(OP(=O)(Oc2ccccc2)Oc2ccccc2)cc1
classification: Condition met

record smiles: CO[P@](=O)(Oc1ccc([N+](=O)[O-])cc1)OC(C)C
classification: Condition not met

record smiles: COP(=O)(OC)Oc1ccc([N+](=O)[O-])cc1
classification: Condition not met

Decide: k cat of CC(C)O[P@@](=O)(Oc1ccccc1)Oc1ccc([N+](=O)[O-])cc1 strictly below 1 s⁻¹?
Condition met

Decide: k cat of CCO[P@@](=O)(Oc1ccccc1)Oc1ccc([N+](=O)[O-])cc1 strictly below 1 s⁻¹?
Condition met

Decide: k cat of CCO[P@](=O)(OC)Oc1ccc([N+](=O)[O-])cc1 strictly below 1 s⁻¹?
Condition not met

* * *

Give measured Ratio for each item. Keep answers brief.
Target: Xaa-Pro dipeptidase (Alteromonas sp.)
Assay: Ratio of kinetic constant Kcat to Km Sp and Kcat to Km Rp from initial velocity assay against OPAA from Alteromonas sp. JD6.5
Give bare numbers.

record smiles: CO[P@@](=O)(Oc1ccc([N+](=O)[O-])cc1)OC(C)C
observed measurement: 23

record smiles: CO[P@](=O)(Oc1ccccc1)Oc1ccc([N+](=O)[O-])cc1
observed measurement: 4

Give recorded Ratio. CCO[P@@](=O)(OC)Oc1ccc([N+](=O)[O-])cc1
36

* * *

Molecular target: Xaa-Pro dipeptidase (Alteromonas sp.) (UniProt Q44238)
Test: Ratio of kinetic constant Kcat to Km from initial velocity assay against OPAA from Alteromonas sp. JD6.5
reported endpoint: k cat/Km (M⁻¹ s⁻¹)
Give bare numbers, in M⁻¹ s⁻¹.

Dear reader, for each entry below, please note its k cat/Km.
1. CO[P@](=O)(Oc1ccc([N+](=O)[O-])cc1)OC(C)C
2. COP(=O)(OC)Oc1ccc([N+](=O)[O-])cc1

4510
140

Dear reader, for each entry below, please note its k cat/Km.
1. CO[P@@](=O)(Oc1ccc([N+](=O)[O-])cc1)OC(C)C
2. CC(C)O[P@](=O)(Oc1ccccc1)Oc1ccc([N+](=O)[O-])cc1
3. CCO[P@](=O)(OC)Oc1ccc([N+](=O)[O-])cc1
4. CO[P@@](=O)(Oc1ccccc1)Oc1ccc([N+](=O)[O-])cc1
5. CCO[P@](=O)(Oc1ccccc1)Oc1ccc([N+](=O)[O-])cc1

[190, 240, 3250, 9990, 300]

* * *

Target: Xaa-Pro dipeptidase (Alteromonas sp.) (UniProt Q44238)
Assay: Kinetic constant Kcat from initial velocity assay against Organophosphorus acid anhydrolase from Alteromonas sp. JD6.5
reported endpoint: k cat (s⁻¹)
Numbers only, in s⁻¹.

record smiles: CCO[P@](=O)(Oc1ccccc1)Oc1ccc([N+](=O)[O-])cc1
observed measurement: 0.2
--
record smiles: CO[P@@](=O)(Oc1ccc([N+](=O)[O-])cc1)OC(C)C
observed measurement: 3.6
--
record smiles: CC(C)O[P@](=O)(Oc1ccccc1)Oc1ccc([N+](=O)[O-])cc1
observed measurement: 0.1
--
record smiles: CO[P@](=O)(Oc1ccccc1)Oc1ccc([N+](=O)[O-])cc1
observed measurement: 1.8

Next molecule, k cat to be filled in.
Give recorded k cat. CO[P@@](=O)(Oc1ccccc1)Oc1ccc([N+](=O)[O-])cc1
40
